# System: NCI/ADR-RES
# assay.comment: NCI tumour cell line growth inhibition, 48 h
The source made the active and inactive calls. Rule as the data show it: active = GI50 up to about 1.1 µM and inactive = higher.
Pick one: T = active, F = inactive

Please review the following examples before continuing.
>>> class_name("[C-]#[N+]C1(C(=O)OCC)CC1")
"F"
>>> class_name("Nc1ccc(Cc2ccc(/N=C\\c3ccc(OCc4cccc(COc5ccc(/C=N\\c6ccc(Cc7ccc(N)cc7)cc6)cc5)n4)cc3)cc2)cc1")
"F"
>>> class_name("CC1=C2C3=C(C)C(=O)C(C)(C)CC[C@@]3(C)[C@]2(C)CCC(C)(C)C1=O")
"F"
>>> class_name("CN1C(=O)c2cccc3cc([N+](=O)[O-])cc(c23)C1=O")
"F"
>>> class_name("Nc1n[c-](N)[n+](=O)c(N)c1NCO")
"F"
>>> class_name("Cn1c(=O)sc2cc(C(=S)N3CCCCC3)ccc21")
"F"
>>> class_name("N#CC(Cc1ccccc1Br)N(CCC1=CCCCC1)C(c1ccccc1)c1ccccc1 (stereo unspecified)")
"F"
>>> class_name("O=c1oc2ccc3ccccc3c2cc1-c1cn2ccsc2n1")
"F"

**Q:** Please share the test call associated with O=c1[nH]c(=O)n(C2CC(O)C(CO)O2)cc1OCC1CCCCC1 (stereo unspecified) .
**A:** F

**Q:** Please share the test call associated with Oc1cc(F)cc2cccnc12 .
**A:** T

**Q:** Please share the test call associated with N#Cc1c(=O)c2cccnc2n2c1[nH]c1ccccc12 .
**A:** F

---

# Test system: A498
# assay.comment: NCI tumour cell line growth inhibition, 48 h
The source made the active and inactive calls. No stated cut-off is given here; in the data, active = GI50 up to about 1.1 µM and inactive = higher.
readout.name: GI50

# example entries with known answers
>>> experimental_value("COc1ccc(N2C(=O)C3c4[nH]c5ccc(C)cc5c4C4CCC(c5ccccc5)CC4C3C2=O)cc1 (stereo not given)")
"22.9 µM (inactive)"
>>> experimental_value("O=C(O)C12CCCCC1CCCC2 (stereo not given)")
"> 100 µM (inactive)"
>>> experimental_value("C(/C=N/N=C1NCCN1)=N\\N=C1NCCN1")
"> 100 µM (inactive)"
>>> experimental_value("O=C(NNC(=S)NC1CCCCC1)c1csc(NC(=S)NC2CCCCC2)n1")
"21.5 µM (inactive)"
>>> experimental_value("Cc1ccc(Cl)c2c1NC(=O)/C2=N\\Nc1ccccc1[N+](=O)[O-]")
"> 100 µM (inactive)"
>>> experimental_value("O=[N+]([O-])c1ccc(-c2ccc(/C=N/n3c(S)nnc3-c3ccc(Cl)cc3)o2)cc1")
"> 100 µM (inactive)"
>>> experimental_value("C[C@H](c1ccccc1)n1c(N)c(-c2nc3ccccc3s2)c2ccc([N+](=O)[O-])cc2c1=O")
"11 µM (inactive)"
>>> experimental_value("S=C1SC(c2ccc(Cl)cc2)(c2ccc(Cl)cc2)c2ccccc21")
"81.8 µM (inactive)"
>>> experimental_value("C/C(=N\\O)c1cccc(Nc2nc3ccccc3c3occc23)c1")
"14.8 µM (inactive)"

Continue with the next molecule.
**Q:** If you can, please state the reported GI50 value of N#C/N=N/c1cc(Cl)c(/N=N/C#N)cc1Cl .
**A:** > 100 µM (inactive)

---

# System: PC-3
# assay.comment: NCI tumour cell line growth inhibition, 48 h
The source made the active and inactive calls. Rule as the data show it: active = GI50 up to about 1.1 µM and inactive = higher.
Pick one: active, inactive

Please review the following examples before continuing.
>>> class_name("CC(=O)OCC1OC(n2c3c(c(-c4ccco4)c(C#N)c2=S)CCC3)C(OC(C)=O)C(OC(C)=O)C1OC(C)=O (stereo not given)")
"inactive"
>>> class_name("CCCCCC/C=C\\CCCCCCCCCc1cccc(OC)c1O")
"inactive"
>>> class_name("COc1ccc(N2CCN(Cc3c(C(C)=O)[n+]([O-])c4ccccc4[n+]3[O-])CC2)cc1")
"inactive"
>>> class_name("CN1C(=O)c2cccc3cc([N+](=O)[O-])cc(c23)C1=O")
"inactive"
>>> class_name("O=S(=O)(N1CCCCN(S(=O)(=O)C(F)(F)F)CCCN(S(=O)(=O)C(F)(F)F)CCCN(S(=O)(=O)C(F)(F)F)CCCCN(S(=O)(=O)C(F)(F)F)CCCN(S(=O)(=O)C(F)(F)F)CCC1)C(F)(F)F")
"inactive"
>>> class_name("Oc1cc(F)cc2cccnc12")
"inactive"
>>> class_name("O=C(O)CCC1(C(=O)O)CCC(=O)c2ccccc21 (stereo not given)")
"inactive"
>>> class_name("CCCCCCCCC[C@@H]1C[C@@H]2CCC3C(C(=O)OCCCCNC(=O)OCc4ccccc4)=C(C)N=C(N1)N32 (stereo not given in full)")
"inactive"
>>> class_name("N#Cc1c(=O)c2cccnc2n2c1[nH]c1ccccc12")
"inactive"
>>> class_name("CC(=O)N1c2cc(/N=N/N(C)C)ccc2NC(=O)CC1C (stereo not given)")
"inactive"

**Q:** Please share the test call associated with CC(=O)OC(OC(C)=O)n1cc(C=O)c2ccccc21 .
**A:** inactive

**Q:** Please share the test call associated with COc1cc2c[n+](C)c3c4cc(OC)c(OC)cc4ccc3c2cc1OC .
**A:** inactive

**Q:** Please share the test call associated with CNC1c2ccccc2C(=O)c2cc3c(cc21)OCCOCCOCCOCCO3 (stereo not given) .
**A:** inactive

**Q:** Please share the test call associated with C=CCNC(=O)/C(Cc1cc(Br)c(OC)c(Br)c1O)=N\O .
**A:** inactive

**Q:** Please share the test call associated with COc1cc2cc(C(=O)N3CC(CCl)c4c3cc(NC(=O)C(C)Nc3c([N+](=O)[O-])cc(C(=O)NCCN(C)C)cc3[N+](=O)[O-])c3ccccc43)[nH]c2c(OC)c1OC (stereo not given) .
**A:** active

**Q:** Please share the test call associated with C=C1C(=O)O[C@H]2[C@H]3O[C@@H](C[C@@H]12)[C@](C)(O)CC[C@@H]1O[C@@]1(C)CCC[C@H]3C .
**A:** inactive

**Q:** Please share the test call associated with COc1ccc2c(=O)c(-c3cc(OC)c(OC)cc3OC)coc2c1 .
**A:** inactive

**Q:** Please share the test call associated with COc1cc2cc(C(=O)N3C[C@H](CCl)c4c3cc(O)c3ccccc43)[nH]c2c(OC)c1OC .
**A:** active

**Q:** Please share the test call associated with CC1(C)CC(=O)C2=C(C1)OC1=C(CC(C)(C)CC1=O)C2c1ccccc1[N+](=O)[O-] (stereo not given) .
**A:** inactive

**Q:** Please share the test call associated with CCOC(=O)CC1(N)CC2c3ccccc3OC(=O)C2C(=O)N1 (stereo not given) .
**A:** inactive

---

# System: HOP-62
# assay.comment: NCI tumour cell line growth inhibition, 48 h
The source made the active and inactive calls. No stated cut-off is given here; in the data, active = GI50 up to about 1.1 µM and inactive = higher.
readout.name: GI50

# example entries with known answers
>>> experimental_value("O=c1[nH]c(=O)c2c([nH]1)[nH]c1ccccc12")
"> 100 µM (inactive)"
>>> experimental_value("Cc1oncc1/N=C1\\C=C(O)C(=O)c2ccccc21")
"17.4 µM (inactive)"

**Q:** What GI50 appears in the records for this compound with HOP-62? Oc1[nH]c(Nc2cc(Cl)cc(Cl)c2)nc2ncnc1-2
**A:** > 75 µM (inactive)

**Q:** What GI50 appears in the records for this compound with HOP-62? O=c1ccc2ccc(O)c3c4c(O)ccc5ccc(=O)c(c1c23)c54
**A:** 2.72 µM (inactive)

**Q:** What GI50 appears in the records for this compound with HOP-62? COc1cc(/C=C2\C(=O)N(c3cccc(Cl)c3)C(c3ccccc3)S2(=O)=O)cc(OC)c1OC (stereo not given)
**A:** 85.7 µM (inactive)

**Q:** What GI50 appears in the records for this compound with HOP-62? CSc1ccc2c(cc1=O)[C@@H](NC(=O)c1ccc(F)cc1)CCc1cc(O)c(O)c(O)c1-2
**A:** > 100 µM (inactive)

**Q:** What GI50 appears in the records for this compound with HOP-62? CS/C(=N/S(=O)(=O)c1ccc(Cl)cc1)NCCCN/C(=N\S(=O)(=O)c1ccc(Cl)cc1)SC
**A:** 24.8 µM (inactive)

**Q:** What GI50 appears in the records for this compound with HOP-62? COC(OC)[C@@H](C)[C@H](O)[C@](C)(O)C1OC(C)(C)OC(C(C)C=C(C)C)C1C (stereo not given in full)
**A:** > 100 µM (inactive)

**Q:** What GI50 appears in the records for this compound with HOP-62? Nc1nc(-c2ccccc2)cc(-c2ccc(OCc3ccccc3)cc2O)n1
**A:** 83.9 µM (inactive)

**Q:** What GI50 appears in the records for this compound with HOP-62? C1=NN(Cc2ccccc2)C(N(Cc2ccccc2)Cc2ccccc2)N1 (stereo not given)
**A:** 18.2 µM (inactive)

**Q:** What GI50 appears in the records for this compound with HOP-62? NC(=S)N1N=C(c2ccccc2O)CC1c1ccccc1 (stereo not given)
**A:** 4.95 µM (inactive)

**Q:** What GI50 appears in the records for this compound with HOP-62? CCOc1ccc(NC(=O)CC2SC(Nc3ccc(Cl)cc3)=NC2=O)cc1 (stereo not given)
**A:** > 100 µM (inactive)

**Q:** What GI50 appears in the records for this compound with HOP-62? Cn1c(=O)nc2n(CCO)c(-c3ccccc3)c(-c3ccccc3)nc-2c1=O
**A:** > 100 µM (inactive)

**Q:** What GI50 appears in the records for this compound with HOP-62? COc1ccc(N2C(=O)C3c4[nH]c5ccccc5c4C4C(C)CCCC4C3C2=O)cc1 (stereo not given)
**A:** 23.6 µM (inactive)

**Q:** What GI50 appears in the records for this compound with HOP-62? COc1ccc(NC(=O)c2oc3cc(O)ccc3c(=O)c2C)c([N+](=O)[O-])c1
**A:** > 100 µM (inactive)

**Q:** What GI50 appears in the records for this compound with HOP-62? [O-]c1c2cc(-[n+]3c(-c4ccccc4)cc(-c4ccccc4)cc3-c3ccccc3)cc1COCCOCCOCCOCCOC2
**A:** 37 µM (inactive)
